target: Env of HIV-1 strain 3016.v5.c45 (HIV-1); assay: cell-based or functional assay
The following binders are listed with their measured neutralization IC50 values.

Please review the entries below; each comes with its answer.
γ59κ11 (antibody, V domains shown) VH: QIHLVQSGTEVKKPGSSVTVSCKAYGVNTFGLYAVNWVRQAPGQGLEYIGQIWRWKSSASHHFRGRVLISAVDLTGSSPPISSLEIKNVTSDDTAVYFCTTTSTYDEWSDLHHDGVMAFSSWGQGTLISVSA VL: DIQMTQSPSTLSASVGGTVRISCRASQSITGGWLAWYHQRPGKAPRLLIYRGSRLLGGVPSRFSGSAAGTDFTLTIANLQAEDFGTFYCQQYDTYPGTFGQGTKVEVKR | > 15 µg/mL
γ4κ18 (antibody, V domains shown) VH: QIHLVQSGTEVKKPGSSVTVSCKAYGVNTFGLYAVNWVRQAPGQSLEYIGQIWRWKSSASHHFRGRVIISAVDLTGSSPPISPLEIKNLTSDDTAVYFCTTTSTSDRWSGLHHDGVMAFSSWGQGTLISVSA VL: DIQMTQSPSTLSASVGDTVRISCRASQSITGGWLAWYHQRPGKAPRLLIYRGSRLLGGVPSRFSGSAAGADFTLTIANLQAEDFGTFYCQQYDTYPGTFGQGTKVEVKR | > 15 µg/mL

Query: What does the data say about its neutralization IC50? Entry: γ44κ61 (antibody, V domains shown) VH: QIHLVQSGTEVKKPGSSVTVSCKAYEVNTFGLYAVNWVRQAPGQSLEYIGQIWRWKSSASHHFRGRVLISAVDLTGSSPPISSLEIKNVTSDDTAVYFCTTTSTHDKWSGLHHDGVMAFSSWGQGTLISVSA VL: DIQMTQSPSTLSASIGDTVRISCRASQSITGNWVAWYHQRPGKAPRLLIYRGAALLGGVPSRFSGSAAGTDFTLTIGNLQAEDFGTFYCQQYDTYPGTFGQGTKVEVKR
Result: > 15 µg/mL
